Biological target: T1, human GPVI-Fc fusion protein (human, UniProt Q9HCN6 21-267, limits assumed)
T1 construct: also called human GPVI protein antigen
T1 sequence (looked up): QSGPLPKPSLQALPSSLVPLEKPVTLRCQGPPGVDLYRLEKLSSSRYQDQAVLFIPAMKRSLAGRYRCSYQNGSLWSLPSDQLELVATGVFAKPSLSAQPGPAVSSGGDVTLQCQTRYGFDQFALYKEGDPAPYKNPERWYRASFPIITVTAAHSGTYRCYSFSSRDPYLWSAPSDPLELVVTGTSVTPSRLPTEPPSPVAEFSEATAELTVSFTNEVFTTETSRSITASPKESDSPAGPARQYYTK
Assay: BLI (Octet), GPVI-Fc on biosensor, 1:1 fit
Observed Property: kon
Write the figure, then the unit, nothing else.

(Q) I am curious: what kon value has been reported for HC4 LC4 humanized Fab (Fab, V domains shown, also called VH4:VL4) VH: QVQLVESGGGVVQPGRSLRLSCAASGFSLTSYGVTWVRQSPGKGLEWVAVIWGDGSTNYHSGLRSRLTISRDNSKNTLYLEMNSLRTEDTATYYCAKPIYYDFDDDAMDYWGQGTKVTVSS VL: DIVMTQSPATLSLSPGDRATLSCKASQNVGTYVAWYQQKPGQAPRLLIYSASYRCSGIPARFSGSGSGTDFTLTISSLQSEDFAVYYCHQYNNYPLTFGGGTKVEIKR ?
(A) 720000 M⁻¹ s⁻¹

(Q) Another binder: HC2 LC4 humanized Fab (Fab, V domains shown, also called VH2:VL4) VH: EVQLVESGPGLVKPSETLSLTCTVSGFSLTSYGVTWIRQPPGKGLEWIGVIWGDGSTNYHSGLRSRVTISVDTSKNQFSLKLSSVTAADTAVYYCAKPIYYDFDDDAMDYWGQGTLVTVSS VL: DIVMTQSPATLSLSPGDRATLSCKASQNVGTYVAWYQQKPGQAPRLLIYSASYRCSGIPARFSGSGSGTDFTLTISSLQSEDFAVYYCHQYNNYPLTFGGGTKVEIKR
(A) 1.59e+06 M⁻¹ s⁻¹
